meta.source: patent US20230219986A1

Biological target: L858R/T790M/C797S triple mutant EGFR (Homo sapiens, UniProt P00533, C797S/L858R/T790M)
Construct: purchased Signalchem
Sequence (P00533 25-1210 T790M/C797S/L858R): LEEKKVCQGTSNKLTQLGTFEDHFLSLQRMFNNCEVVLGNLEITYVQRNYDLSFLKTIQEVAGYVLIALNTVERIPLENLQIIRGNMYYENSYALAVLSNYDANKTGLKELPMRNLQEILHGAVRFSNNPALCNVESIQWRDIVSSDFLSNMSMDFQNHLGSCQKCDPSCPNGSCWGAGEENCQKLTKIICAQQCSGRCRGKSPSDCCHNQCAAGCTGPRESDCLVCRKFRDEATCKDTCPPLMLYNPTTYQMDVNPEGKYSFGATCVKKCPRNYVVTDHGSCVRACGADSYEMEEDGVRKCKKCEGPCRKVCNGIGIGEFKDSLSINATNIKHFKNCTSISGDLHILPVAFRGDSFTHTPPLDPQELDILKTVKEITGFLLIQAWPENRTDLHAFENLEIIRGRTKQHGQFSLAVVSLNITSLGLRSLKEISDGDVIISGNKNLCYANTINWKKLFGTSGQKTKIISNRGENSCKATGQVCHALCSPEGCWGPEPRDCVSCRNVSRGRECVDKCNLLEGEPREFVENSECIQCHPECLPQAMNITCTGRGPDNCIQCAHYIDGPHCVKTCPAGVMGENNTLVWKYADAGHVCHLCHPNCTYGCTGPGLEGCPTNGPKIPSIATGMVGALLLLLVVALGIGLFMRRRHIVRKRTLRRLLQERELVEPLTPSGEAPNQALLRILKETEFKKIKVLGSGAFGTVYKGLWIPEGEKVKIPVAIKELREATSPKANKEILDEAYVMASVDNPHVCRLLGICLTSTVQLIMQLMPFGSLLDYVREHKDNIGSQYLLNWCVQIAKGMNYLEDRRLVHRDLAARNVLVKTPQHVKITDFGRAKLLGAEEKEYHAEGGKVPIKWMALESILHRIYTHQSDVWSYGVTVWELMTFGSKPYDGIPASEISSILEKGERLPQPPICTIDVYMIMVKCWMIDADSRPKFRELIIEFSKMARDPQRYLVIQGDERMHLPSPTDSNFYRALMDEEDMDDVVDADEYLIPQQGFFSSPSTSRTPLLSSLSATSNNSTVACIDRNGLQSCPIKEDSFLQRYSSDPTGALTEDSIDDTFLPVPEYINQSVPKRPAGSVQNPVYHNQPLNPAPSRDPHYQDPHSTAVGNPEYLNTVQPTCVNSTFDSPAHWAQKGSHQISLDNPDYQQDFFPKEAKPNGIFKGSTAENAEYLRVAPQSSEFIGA
Assay: Enzymology experiment in vitro (HTRF/FRET kinase activity), L858R/T790M/C797S triple mutant EGFR
Format: biochemical
Conditions: HTRF KinEASE-TK, read-out: EGFR (L858R/T790M/C797S) IC50
quantity: log10(IC50) (log10 of the value in nM)
Values reflect log10 of reported IC50 (nM).

input: Reported log10(IC50), compound COc1cc(N2CCC(O)CC2)c(-c2cnn(C)c2)cc1Nc1ncc(Br)c(Nc2ccc3nccnc3c2P(C)(C)=O)n1 [compound 121] : ____
output: -0.60

input: // same read-out, input: COc1cc(N2CCC3(CC2)COCCN3C)c(-c2cnn(C)c2)cc1Nc1ncc(Br)c(Nc2cc3c(cc2N(C)S(C)(=O)=O)CC3)n1 [compound 208]
output: -0.24

input: // same read-out, input: COc1cc(N2CCC3(CCOC3)C2)c(-c2cnn(C)c2)cc1Nc1ncc(Br)c(Nc2ccc3nccnc3c2P(C)(C)=O)n1 (centres unmarked) [compound 203]
output: -0.33

input: // same read-out, input: COc1cc(N2CC(C)OC(C)C2)c(-c2cnn(C)c2)cc1Nc1ncc(Br)c(Nc2cc3c(cc2P(C)(C)=O)CC3)n1 (racemic) [compound 136]
output: 0.72

input: // same read-out, input: COc1cc(N2CCOCC2)c(-c2cnn(C)c2)nc1Nc1ncc(C)c(Nc2ccc3nccnc3c2P(C)(C)=O)n1 [compound 71]
output: 0.23

input: // same read-out, input: COc1cc(N2CCC(OCC3CC3)CC2)c(-c2cnn(C)c2)cc1Nc1ncc(Br)c(Nc2ccc3nccnc3c2P(C)(C)=O)n1 [compound 156]
output: 0.58

input: // same read-out, input: COc1cc(N2CCOCC2)c(-c2cnn(C)c2)cc1Nc1ncc(Br)c(Nc2ccccc2P(C)(C)=O)n1 [Compound 2]
output: -1.05

input: // same read-out, input: COc1nc(N2CCC3(CCN(CCF)CC3)CC2)c(-c2cnn(C)c2)cc1Nc1ncc(Br)c(Nc2ccc3nccnc3c2P(C)(C)=O)n1 [compound 249]
output: -0.40

input: // same read-out, input: COc1cc(N2CC[C@H](OC)[C@H](F)C2)c(-c2cnn(C)c2)cc1Nc1ncc(Br)c(Nc2ccc3nccnc3c2P(C)(C)=O)n1 [compound 187]
output: -1.40

input: // same read-out, input: COc1cc(N2CCN(CC3CC3)CC2)c(-c2cnn(C)c2)cc1Nc1ncc(Br)c(Nc2ccc3nccnc3c2P(C)(C)=O)n1 [compound 235]
output: -0.57

input: // same read-out, input: COc1cc(N2CCC(N3CC[C@H](OC)[C@H](F)C3)CC2)c(-c2cnn(C)c2)cc1Nc1ncc(Br)c(Nc2ccc3nccnc3c2P(C)(C)=O)n1 [compound 185]
output: -0.44

input: // same read-out, input: COc1cc(N2CCC(N3CCN(C)CC3)CC2)c(-c2cscn2)cc1Nc1ncc(Br)c(Nc2ccc3nccnc3c2P(C)(C)=O)n1 [compound 98]
output: -0.09

input: // same read-out, input: CCN1CCC2(CC1)CCN(c1cc(OC)c(Nc3ncc(Br)c(Nc4ccc5nccnc5c4P(C)(C)=O)n3)cc1-c1cnn(C)c1)CC2 [compound 226]
output: -0.72

input: // same read-out, input: COc1cc(N2CCC(N3CCO[C@H](C)C3)CC2)c(-c2cnn(C)c2)cc1Nc1ncc(Br)c(Nc2ccc3nccnc3c2P(C)(C)=O)n1 [compound 163]
output: -0.55

input: // same read-out, input: COc1cc(N2CCC(N(C)C(C)C(F)(F)F)CC2)c(-c2cnn(C)c2)cc1Nc1ncc(Br)c(Nc2ccc3nccnc3c2P(C)(C)=O)n1 (centres unmarked) [compound 173]
output: 0.78

input: // same read-out, input: COc1cc(N2CCOCC2)c(-c2cn(C)nc2C)cc1Nc1ncc(Br)c(Nc2ccc3nccnc3c2P(C)(C)=O)n1 [compound 43]
output: -0.33

input: // same read-out, input: COc1cc(N2CCC3(CC2)CN(C)CC(C)O3)c(-c2cnn(C)c2)cc1Nc1ncc(Br)c(Nc2ccc3nccnc3c2P(C)(C)=O)n1 (racemic) [compound 217]
output: -0.02

input: // same read-out, input: COc1cc(N2CCC(C)(O)CC2)c(-c2cnn(C)c2)cc1Nc1ncc(Br)c(Nc2ccc3nccnc3c2P(C)(C)=O)n1 [compound 142]
output: -0.60

input: // same read-out, input: COc1cc(N2CCC(OC)CC2)c(-c2cnn(C)c2)cc1Nc1ncc(Br)c(Nc2ccc3nccnc3c2P(C)(C)=O)n1 [compound 26]
output: -0.31

input: // same read-out, input: COc1cc(N2CCOCC2)c(-c2ccsc2)cc1Nc1ncc(Br)c(Nc2ccc3nccnc3c2P(C)(C)=O)n1 [compound 86]
output: 1.19
